Details: human, 4 h, pH 7.4
Structures can show the parent of a compound that is named as a salt.
Below: a set of entries, each annotated with reported The cumulative amount of test compounds.
Express your answer in mg, writing the number without its unit.

Recorded results for 8 molecules are shown here.
{"molecule": "CNCC(=O)NCCc1ccc(OC(=O)c2ccccc2)c(OC(=O)c2ccccc2)c1.Cl", "obs-value": 2.67}
{"molecule": "CCN(CC)CCOC(=O)c1ccccc1OC(C)=O.Cl", "obs-value": 4.27}
{"molecule": "CCC(CC)C(=O)Oc1ccc(CCNC(=O)OC2CCC3CCCCN3C2)cc1OC(=O)C(CC)CC (centres unmarked)", "obs-value": 2.57}
{"molecule": "CCOC(=O)[C@@H](N)Cc1ccc(OC(C)=O)c(OC(C)=O)c1.Cl", "obs-value": 2.44}
{"molecule": "CNCC(=O)Oc1ccc(C[C@H](NC(=O)OC(C)OC(=O)C(C)C)C(=O)OC(C)C)cc1OC(=O)c1ccccc1 (some centres unmarked) [Compound-21(a), hydrochloride]", "obs-value": 2.17}
{"molecule": "CC(C)OC(=O)[C@H](Cc1ccc2c(c1)OC(=O)C(N)CC(=O)O2)NC(=O)OC(C)OC(=O)C(C)C (some centres unmarked) [Compound-20(b), hydrobromide]", "obs-value": 1.78}
{"molecule": "CCCC(CCC)OC(=O)[C@@H](N)Cc1ccc(OC(=O)c2ccccc2)c(OC(=O)c2ccccc2)c1.Cl", "obs-value": 2.13}
{"molecule": "Cl.NC(Cc1ccccc1)C(=O)NCCc1ccc(OC(=O)c2ccccc2)c(OC(=O)c2ccccc2)c1 (centres unmarked)", "obs-value": 2.45}

Item under review: `CCN(CC)CCOC(=O)c1ccccc1Nc1c(Cl)ccc(C)c1Cl` . Reported The cumulative amount of test compounds? 3.38

Item under review: `CC(C)OC(=O)[C@@H](N)Cc1ccc(OC(=O)c2ccccc2)c(OC(=O)c2ccccc2)c1.Cl` . Reported The cumulative amount of test compounds? 2.33

Item under review: CNCC(=O)Oc1cc(C[C@H](NC(=O)OC(C)OC(=O)C(C)C)C(=O)OC(C)C)ccc1OC(=O)c1ccccc1 (some centres unmarked) [Compound-21(b), hydrochloride] . Reported The cumulative amount of test compounds? 2.08

Item under review: CC(OC(=O)NCCc1ccc2c(c1)OC(=O)CC(N)C(=O)O2)OC(=O)C(C)C (centres unmarked) . Reported The cumulative amount of test compounds? 2.47

Item under review: `CCCN(CCC)CCOC(=O)c1cc(-c2ccc(F)cc2F)ccc1OC(C)=O.Cl` . Reported The cumulative amount of test compounds? 4.11

Item under review: CC(=O)Oc1ccccc1C(=O)O [Compound-32, acetylsalicylic acid, reference compound] . Reported The cumulative amount of test compounds? 0.002

Item under review: `Br.CCC(CC)OC(=O)[C@@H](N)Cc1ccc(OC(=O)C(C)C)c(OC(=O)C(C)C)c1` . Reported The cumulative amount of test compounds? 2.23

Item under review: CCOC(=O)NCCc1ccc(OC(=O)CNC)c(OC(=O)c2ccccc2)c1 [Compound-9b, hydrochloride] . Reported The cumulative amount of test compounds? 2.48

Item under review: CC(C)OC(=O)[C@H](Cc1ccc(OC(=O)C(C)C)c(OC(=O)C(C)C)c1)NC(=O)C1CCN2CCCCC2C1.Cl (some centres unmarked) . Reported The cumulative amount of test compounds? 2.02

The measurements presented in this section are drawn from patent US11685739B2.
